Test system: Staphylococcus aureus
Assay: Antibacterial activity against methicillin-resistant Staphylococcus aureus clinical isolate M-11 assessed as inhibition of visible growth incubated for 16 to 18 hrs by CLSI method
Type: functional
Settings: time 16-18 hrs, read-out: MIC100
Reported MIC by item:
readout type: MIC (µg/mL)

>>> recorded_result("C=CCc1ccc(OCCC[N+](C)(C)CC(=O)NCCC)c(-c2ccc(OCCC[N+](C)(C)CC(=O)NCCC)c(CC=C)c2)c1.[Br-].[Br-]")
4
>>> recorded_result("C=CCc1ccc(OCC[N+](C)(C)CC(=O)NCCCC)c(-c2ccc(OCC[N+](C)(C)CC(=O)NCCCC)c(CC=C)c2)c1.[Br-].[Br-]")
4
>>> recorded_result("C=CCc1ccc(O)c(-c2cc(CC=C)ccc2OCC[N+](C)(C)CC(=O)NCCCCC)c1.[Br-]")
16
>>> recorded_result("C=CCc1ccc(O)c(-c2cc(CC=C)ccc2OCCCC[N+](C)(C)CC(=O)NCCCCCC)c1.[Br-]")
8
>>> recorded_result("C=CCc1ccc(OCC[N+](C)(C)CC(=O)NCC)c(-c2ccc(OCC[N+](C)(C)CC(=O)NCC)c(CC=C)c2)c1.[Br-].[Br-]")
8
>>> recorded_result("C=CCc1ccc(O)c(-c2cc(CC=C)ccc2OCCCC[N+](C)(C)CC(=O)N(CCCC)CCCC)c1.[Br-]")
16
>>> recorded_result("CN(C)c1cc(NC(=O)CNC(C)(C)C)c(O)c2c1C[C@H]1C[C@H]3[C@H](N(C)C)C(O)=C(C(N)=O)C(=O)[C@@]3(O)C(O)=C1C2=O [TIGECYCLINE]")
0.5

###

System: Staphylococcus aureus
Test: Antibacterial activity against methicillin-resistant Staphylococcus aureus clinical isolate M-11 assessed as inhibition of visible growth incubated for 16 to 18 hrs by CLSI method
Assay type: functional
Details: time 16-18 hrs, read-out: MIC100
readout type: MIC

>>> recorded_result("C=CCc1ccc(OCC[N+](C)(C)CC(=O)N(CCCC)CCCC)c(-c2ccc(OCC[N+](C)(C)CC(=O)N(CCCC)CCCC)c(CC=C)c2)c1.[Br-].[Br-]")
"4 µg/mL"
>>> recorded_result("C=CCc1ccc(OCCC[N+](C)(C)CC(=O)NCCCCC)c(-c2ccc(OCCC[N+](C)(C)CC(=O)NCCCCC)c(CC=C)c2)c1.[Br-].[Br-]")
"4 µg/mL"
>>> recorded_result("C=CCc1ccc(OCCC[N+](C)(C)CC(=O)N(CCCC)CCCC)c(-c2ccc(OCCC[N+](C)(C)CC(=O)N(CCCC)CCCC)c(CC=C)c2)c1.[Br-].[Br-]")
"8 µg/mL"
>>> recorded_result("C=CCc1ccc(OCCC[N+](C)(C)CC(=O)NCCCC)c(-c2ccc(OCCC[N+](C)(C)CC(=O)NCCCC)c(CC=C)c2)c1.[Br-].[Br-]")
"1 µg/mL"
>>> recorded_result("C=CCc1ccc(O)c(-c2cc(CC=C)ccc2OCCC[N+](C)(C)CC(=O)NCCCCC)c1.[Br-]")
"8 µg/mL"
>>> recorded_result("C=CCc1ccc(O)c(-c2cc(CC=C)ccc2OCCC[N+](C)(C)CC(=O)N(CCCC)CCCC)c1.[Br-]")
"4 µg/mL"
>>> recorded_result("C=CCc1ccc(O)c(-c2cc(CC=C)ccc2OCCCC[N+](C)(C)CC(=O)NCCCC)c1.[Br-]")
"4 µg/mL"

###

Test system: Staphylococcus aureus
Assay: Antibacterial activity against methicillin-resistant Staphylococcus aureus clinical isolate M-14 assessed as inhibition of visible growth incubated for 16 to 18 hrs by CLSI method
Format: functional
Details: time 16-18 hrs, read-out: MIC100
readout type: MIC (µg/mL)

>>> recorded_result("C=CCc1ccc(OCCCC[N+](C)(C)CC(=O)NCC)c(-c2ccc(OCCCC[N+](C)(C)CC(=O)NCC)c(CC=C)c2)c1.[Br-].[Br-]")
8
>>> recorded_result("C=CCc1ccc(OCC[N+](C)(C)CC(=O)NCCC)c(-c2ccc(OCC[N+](C)(C)CC(=O)NCCC)c(CC=C)c2)c1.[Br-].[Br-]")
8
>>> recorded_result("C=CCc1ccc(O)c(-c2cc(CC=C)ccc2OCCC[N+](C)(C)CC(=O)NCCCCCC)c1.[Br-]")
2
>>> recorded_result("C=CCc1ccc(OCC[N+](C)(C)CC(=O)N(CCCC)CCCC)c(-c2ccc(OCC[N+](C)(C)CC(=O)N(CCCC)CCCC)c(CC=C)c2)c1.[Br-].[Br-]")
4

###

Known MIC of a selection of molecules
Tested on: Salmonella enterica
Experiment: Antibacterial activity against Salmonella enterica 349812 assessed as inhibition of visible growth incubated for 16 to 18 hrs by CLSI method
Assay type: functional
Details: time 16-18 hrs, read-out: MIC100
readout type: MIC (µg/mL)

>>> recorded_result("C=CCc1ccc(O)c(-c2cc(CC=C)ccc2OCCCC[N+](C)(C)CC(=O)NCCCCC)c1.[Br-]")
32
>>> recorded_result("C=CCc1ccc(O)c(-c2cc(CC=C)ccc2OCC[N+](C)(C)CC(=O)N(CCCC)CCCC)c1.[Br-]")
16
>>> recorded_result("C=CCc1ccc(OCC[N+](C)(C)CC(=O)NCCC)c(-c2ccc(OCC[N+](C)(C)CC(=O)NCCC)c(CC=C)c2)c1.[Br-].[Br-]")
64
>>> recorded_result("C=CCc1ccc(OCCCC[N+](C)(C)CC(=O)NCCCCC)c(-c2ccc(OCCCC[N+](C)(C)CC(=O)NCCCCC)c(CC=C)c2)c1.[Br-].[Br-]")
8

###

Tested on: Salmonella enterica
Experiment: Antibacterial activity against Salmonella enterica 349812 assessed as inhibition of visible growth incubated for 16 to 18 hrs by CLSI method
Type: functional
Settings: time 16-18 hrs, read-out: MIC100
readout type: MIC (µg/mL)

>>> recorded_result("C=CCc1ccc(OCCC[N+](C)(C)CC(=O)NCCC)c(-c2ccc(OCCC[N+](C)(C)CC(=O)NCCC)c(CC=C)c2)c1.[Br-].[Br-]")
32
>>> recorded_result("C=CCc1ccc(OCCCC[N+](C)(C)CC(=O)NCCCCCC)c(-c2ccc(OCCCC[N+](C)(C)CC(=O)NCCCCCC)c(CC=C)c2)c1.[Br-].[Br-]")
16
>>> recorded_result("C=CCc1ccc(OCC[N+](C)(C)CC(=O)NCC)c(-c2ccc(OCC[N+](C)(C)CC(=O)NCC)c(CC=C)c2)c1.[Br-].[Br-]")
32

###

Test system: Staphylococcus aureus
Test: Antibacterial activity against methicillin-resistant Staphylococcus aureus clinical isolate M-14 assessed as inhibition of visible growth incubated for 16 to 18 hrs by CLSI method
Assay type: functional
Details: time 16-18 hrs, read-out: MIC100
API: label(entry) gives label 1 if the entry's MIC is strictly smaller than 4 µg/mL; on equality or larger values it gives label 0.

>>> class_name("C=CCc1ccc(OCC[N+](C)(C)CC(=O)NCCCCCC)c(-c2ccc(OCC[N+](C)(C)CC(=O)NCCCCCC)c(CC=C)c2)c1.[Br-].[Br-]")
"label 0"
>>> class_name("C=CCc1ccc(O)c(-c2cc(CC=C)ccc2OCCCC[N+](C)(C)CC(=O)NCCCC)c1.[Br-]")
"label 1"
>>> class_name("C=CCc1ccc(OCCC[N+](C)(C)CC(=O)NCC)c(-c2ccc(OCCC[N+](C)(C)CC(=O)NCC)c(CC=C)c2)c1.[Br-].[Br-]")
"label 0"
>>> class_name("C=CCc1ccc(O)c(-c2cc(CC=C)ccc2OCCC[N+](C)(C)CC(=O)NCCCCC)c1.[Br-]")
"label 1"
>>> class_name("C=CCc1ccc(O)c(-c2cc(CC=C)ccc2OCCCC[N+](C)(C)CC(=O)N(CCCC)CCCC)c1.[Br-]")
"label 0"
>>> class_name("C=CCc1ccc(OCCC[N+](C)(C)CC(=O)NCCCC)c(-c2ccc(OCCC[N+](C)(C)CC(=O)NCCCC)c(CC=C)c2)c1.[Br-].[Br-]")
"label 1"
>>> class_name("C=CCc1ccc(OCCCC[N+](C)(C)CC(=O)N(CCCC)CCCC)c(-c2ccc(OCCCC[N+](C)(C)CC(=O)N(CCCC)CCCC)c(CC=C)c2)c1.[Br-].[Br-]")
"label 0"
>>> class_name("C=CCc1ccc(OCCCC[N+](C)(C)CC(=O)NCCCCC)c(-c2ccc(OCCCC[N+](C)(C)CC(=O)NCCCCC)c(CC=C)c2)c1.[Br-].[Br-]")
"label 1"
>>> class_name("C=CCc1ccc(OCCCC[N+](C)(C)CC(=O)NCCCCCC)c(-c2ccc(OCCCC[N+](C)(C)CC(=O)NCCCCCC)c(CC=C)c2)c1.[Br-].[Br-]")
"label 0"
>>> class_name("C=CCc1ccc(OCCC[N+](C)(C)CC(=O)NCCC)c(-c2ccc(OCCC[N+](C)(C)CC(=O)NCCC)c(CC=C)c2)c1.[Br-].[Br-]")
"label 1"
>>> class_name("C=CCc1ccc(O)c(-c2cc(CC=C)ccc2OCC[N+](C)(C)CC(=O)NCCCCC)c1.[Br-]")
"label 0"
>>> class_name("C[C@H]1COc2c(N3CCN(C)CC3)c(F)cc3c(=O)c(C(=O)O)cn1c23.C[C@H]1COc2c(N3CCN(C)CC3)c(F)cc3c(=O)c(C(=O)O)cn1c23.O [LEVOFLOXACIN]")
"label 1"
>>> class_name("C=CCc1ccc(OCCC[N+](C)(C)CC(=O)N(CCCC)CCCC)c(-c2ccc(OCCC[N+](C)(C)CC(=O)N(CCCC)CCCC)c(CC=C)c2)c1.[Br-].[Br-]")
"label 0"
>>> class_name("CN(C)c1cc(NC(=O)CNC(C)(C)C)c(O)c2c1C[C@H]1C[C@H]3[C@H](N(C)C)C(O)=C(C(N)=O)C(=O)[C@@]3(O)C(O)=C1C2=O [TIGECYCLINE]")
"label 1"
>>> class_name("C=CCc1ccc(OCCCC[N+](C)(C)CC(=O)NCCCC)c(-c2ccc(OCCCC[N+](C)(C)CC(=O)NCCCC)c(CC=C)c2)c1.[Br-].[Br-]")
"label 1"
>>> class_name("C=CCc1ccc(O)c(-c2cc(CC=C)ccc2OCCCC[N+](C)(C)CC(=O)NCCCCCC)c1.[Br-]")
"label 0"
